system: CRL-7250; experiment: Cytotoxic Profiling of Annotated Libraries Using Quantitative High-Throughput Screening (AID 1296008); conditions: Five cell lines viability, CellTiter-Glo ATP luminescence, 48-72 h; hits give low values; note: % is set by controls: 0 for no effect and ±100 for the full control effect; nearly all actives have a fitted effect of over 60% in size
Inconclusive results are not listed.
max response values for the compounds below.
outcome measure: max response (%)

# compound, observed value
records = [
    ("COc1ccc(C2(O)CCC(N3CC[C@@H](NC(=O)CNC(=O)c4cccc(C(F)(F)F)c4)C3)CC2)cn1 (stereo not given in full)", -18),
    ("CC(=O)C1=C(C)N(c2cccc(C(F)(F)F)c2)C(=O)N[C@H]1c1ccc(C#N)nc1", 2.3),
    ("COC(=O)CCSCc1ccc(-c2onc(C)c2NC(=O)OC(C)c2ccccc2Cl)cc1 (stereo not given)", -4.23),
    ("C[C@@H]1O[C@@H](O[C@H]2[C@H](O[C@H]3[C@H](O)[C@@H](C(=O)O)O[C@@H](O[C@H]4CC[C@@]5(C)C(CC[C@]6(C)C5CC[C@]57OC[C@@]8(CCC(C)(C)CC85)[C@H](O)C[C@]76C)C4(C)C)[C@@H]3O[C@@H]3O[C@H](CO)[C@@H](O[C@@H]4OC[C@@H](O)[C@H](O)[C@H]4O)[C@H](O)[C@H]3O)O[C@H](CO)[C@H](O)[C@@H]2O)[C@H](O)[C@H](O)[C@H]1O (stereo not given in full)", -4.31),
    ("O=C1CSc2ccccc2N1Cc1cccc(C(F)(F)F)c1", -9.14),
    ("CC1(C)CC[C@]2(C(=O)O[C@@H]3O[C@H](CO)[C@@H](O)[C@H](O)[C@H]3O)CC[C@]3(C)C(=CCC4[C@@]5(C)C[C@@H](O)[C@H](O)C(C)(C)C5CC[C@]43C)C2[C@@H]1O (stereo not given in full)", 0.543),
    ("CC(C)C1=CC2C(CC[C@]2(C)O)[C@](C)(O)CC1 (stereo not given in full)", -11.6),
    ("C=C(C(=O)O)[C@H]1C[C@]2(C)[C@@H](O)CC[C@]23O[C@H]1C[C@@H]3C", -8.76),
    ("CCOC(=O)C(CCc1ccccc1)NC1CSC(c2cccs2)CN(CC(=O)O)C1=O (stereo not given)", 2.02),
    ("CCc1c(C)nc2c(-c3cnn(-c4cc(CO)ccn4)c3)c[nH]n2c1=O", -0.312),
    ("OC1CCC(Nc2ncc3nc(Nc4c(F)cc(F)cc4F)n([C@H]4CCOC4)c3n2)CC1 (stereo not given in full)", -2.71),
    ("CC1(C)CC2=C3C=CC4C5(C)CCC(O)C(C)(C)C5CCC4(C)C3(C)CCC2(C)C(O)C1 (stereo not given)", -3.63),
    ("CCCC1(c2ccccc2)NC(=O)N(CC(=O)N(C)Cc2c(F)cccc2Cl)C1=O (stereo not given)", -1.75),
    ("O=C(/C=C\\c1ccc(O)cc1)N[C@@H](Cc1ccc(O)cc1)C(=O)O", -7.69),
    ("CC(C)=CCC/C(C)=C/CO[C@@H]1O[C@H](CO)[C@@H](OC(=O)/C=C/c2ccc(O)cc2)[C@H](O[C@@H]2O[C@@H](C)[C@H](O)[C@@H](O)[C@H]2O)[C@H]1O", 0.478),
    ("COc1cc(O)cc(C)c1C(=O)OC1C(CO)OC(OC2C(O)C(O)C(O)C(O)C2O)C(O)C1O (stereo not given)", -0.0302),
    ("COc1ccc(CCC(=O)c2c(O)cc(O)cc2O[C@@H]2O[C@H](CO)[C@@H](O)[C@H](O)[C@H]2O)cc1", -5.63),
    ("C[C@@H]1C(=O)O[C@H]2C[C@]34[C@H]5C[C@@H](C(C)(C)C)[C@]36[C@@H](OC(=O)[C@H]6O)O[C@]4(C(=O)O5)[C@]21O", -0.0261),
    ("C[C@]1(CO)CCC[C@]2(C)C3=C(CCC12)COC3 (stereo not given in full)", -5.66),
    ("CC1(C)CC[C@]2(CO[C@@H]3O[C@H](CO)[C@@H](O)[C@H](O)[C@H]3O)[C@@H](O)C[C@]3(C)C(=CCC4[C@@]5(C)CC[C@H](O[C@@H]6O[C@H](CO[C@@H]7O[C@H](CO[C@@H]8OC[C@@H](O)[C@H](O)[C@H]8O)[C@@H](O)[C@H](O)[C@H]7O)[C@@H](O)[C@H](O)[C@H]6O)C(C)(C)C5CC[C@]43C)[C@@H]2C1 (stereo not given in full)", -5.37),
    ("CC1(C)CCC2(C(=O)OC3OC(CO)C(O)C(O)C3O)CCC3(C)C(=CCC4C5(C)CCC(OC6OC(C(=O)O)C(OC7OC(CO)C(O)C(O)C7O)C(OC7OC(CO)C(O)C(O)C7O)C6O)C(C)(C)C5CCC43C)C2C1 (stereo not given)", 3.03),
    ("C/C=C1\\[C@H](O[C@@H]2O[C@H](CO)[C@@H](O)[C@H](O)[C@H]2O)OC=C(C(=O)OC)[C@H]1CC(=O)OC[C@H]1O[C@@H](OCCc2ccc(O)cc2)[C@H](O)[C@@H](O)[C@@H]1O", -9.74),
    ("CC(=O)O[C@@H]1C[C@@H](OC(C)=O)C(C)(C)/C=C/[C@H](C)[C@H](OC(C)=O)[C@@]2(O)C[C@H](C)[C@H](OC(=O)c3ccccc3)[C@@H]2/C=C/1C", -20.7),
    ("C[C@@H]1O[C@@H](O[C@H]2[C@H](O)[C@@H](O[C@@H]3O[C@H](CO)[C@@H](O)[C@H](O[C@@H]4O[C@H](CO)[C@@H](O)[C@H](O)[C@H]4O)[C@H]3O)[C@H](O[C@H]3CC[C@@]4(C)C(=CC[C@@H]5C4CC[C@@]4(C)C5C[C@@H]5OC6(CC[C@@](C)(CO[C@@H]7O[C@H](CO)[C@@H](O)[C@H](O)[C@H]7O)O6)[C@@H](C)[C@@H]54)C3)O[C@@H]2CO)[C@H](O)[C@H](O)[C@H]1O (stereo not given in full)", -2.4),
    ("Cc1csc(NC(=O)c2ccc(COc3cccc(Cl)c3)o2)n1", -4.74),
]
